# Tested on: SK-MEL-5 melanoma
# EXPERIMENTAL DETAILS: NCI-60 one-dose screen, 48 h (100 = growth as untreated, 0 = no growth, -100 = all killed)
# COND: 10 µM unless noted
Compounds without any hit were thinned out: in the full panel of roughly 83,000, 20% have a hit.
# growth >= 90% gives YES, anything below gives NO

Req: Please indicate if the recorded growth for "Oc1ccc(C#CCOc2ccccc2)cc1CNCCN(Cc1ccccn1)Cc1ccccn1" meets or exceeds 90%.
Resp: NO

Req: One more compound: CN1C(=O)N(C)C2Nn3c(s/c(=C\c4ccccc4)c3=O)=NC21 (centres undefined)
Resp: YES

Req: Next compound: "c1ccc2c(-c3nc(-c4c[nH]c5ccncc45)cs3)c[nH]c2c1"
Resp: NO

Req: Now consider "COc1cc(C(=O)c2cnc(-c3cccc4[nH]ccc34)[nH]2)cc(OC)c1OC" .
Resp: NO

Req: // same read-out, input: CC(=O)OC[C@H]1OC(Sc2sc(C(=O)c3ccc(Cl)cc3)c(N)c2-c2nc3ccccc3s2)[C@H](OC(C)=O)[C@@H](OC(C)=O)[C@@H]1OC(C)=O (some centres undefined)
Resp: NO

Req: Repeat for the following compound: "NCCCNc1nc2ccc(Cl)cc2c2c(=O)c3cc(F)ccc3sc12"
Resp: YES

Req: # iterate: "CS(=O)(=O)Nc1cc(-c2ccc3ncnc(Nc4cccc(Cl)c4F)c3c2)cnc1Cl"
Resp: NO

Req: Further, for "c1ccc(Cc2nn3cc(-c4ccccc4)nc3s2)cc1" ?
Resp: YES

Req: Another compound to look at: "CCCCCCn1c(-c2ccc(C(=O)O/N=C(\N)c3ccc4ccccc4c3)cc2)nc(-c2ccccc2)c1-c1ccccc1"
Resp: NO

---

Answer each item with its documented growth.
# Tested on: EKVX NSCLC
# EXPERIMENTAL DETAILS: NCI-60 one-dose screen, 48 h (100 = growth as untreated, 0 = no growth, -100 = all killed)
# COND: 10 µM unless noted
Compounds without any hit were thinned out: in the full panel of roughly 83,000, 20% have a hit.
Numeric only. Scale: %

Req: Would you kindly share the measured growth for "COc1cc(C(=O)c2cc(C)c3[nH]c4ccc(O)cc4c3c2C)cc(OC)c1OC" ?
Resp: 35.9

Req: Would you mind doing "C=C1C(=O)O[C@H]2[C@H]1CC/C(COC(=O)NCCOCCOCC(=O)Nc1ccc(OC)c(C(N)=O)c1O)=C\CC[C@@]1(C)O[C@@H]21" as well?
Resp: 84.1

Req: Consider next the molecule "CCN(CC)CCCNc1nc2ccccc2c2c(=O)c3cc(Cl)ccc3sc12" in the same way.
Resp: 79.1

Req: Let us now turn to "c1ccc(-c2nc3sc(-c4ccccc4)cn3n2)cc1"
Resp: 78.6

Req: Queued: "CCS(=O)(=O)c1ncnc2nc[nH]c12"
Resp: 99.3

---

# Test system: K-562 leukemia
# EXPERIMENTAL DETAILS: NCI-60 one-dose screen, 48 h (100 = growth as untreated, 0 = no growth, -100 = all killed)
# COND: 10 µM unless noted
About 83,000 compounds went through this panel and 20% of them were active in at least one assay; those are over-represented in the sample as a whole.
Mark 1.0 only for growth values smaller than 90%; exact matches and larger values are 0.0.

Req: Please determine if "CS(=O)(=O)N(c1cc(-c2ccc3ncnc(Nc4ccc(F)c(Cl)c4)c3c2)cnc1Cl)S(C)(=O)=O" is below 90% in terms of growth.
Resp: 1.0

Req: Entry "COc1ccc(OC)c(/C=C/C(=O)N/N=C/c2ccccc2)c1" please
Resp: 1.0

Req: Now consider "CSc1nc2ccc(C)cc2cc1/C=N/O" .
Resp: 0.0

Req: Now this one: "CCc1ccccc1-n1c(N)c(C#N)c(-c2ccc(Cl)cc2)c(C#N)c1=O"
Resp: 0.0

Req: Please do the same for "COc1ccc(C(=O)C(C)C)c2ccccc12" as well.
Resp: 0.0

Req: And then "CCCCCCn1c(-c2ccc(C(=O)O/N=C(\N)c3ccc(OC)cc3)cc2)nc(-c2ccccc2)c1-c1ccccc1" , what is it?
Resp: 1.0

Req: Repeat with OC(COc1ccccc1Cl)CN1CCN(c2cccc(Cl)c2)CC1 (stereo not given)
Resp: 0.0

Req: "CCOC(=O)c1nc(Nc2ccc(C(C)=O)cc2)sc1C" , same question.
Resp: 0.0

Req: "CCCCn1c(-c2ccc(C(=O)O/N=C(\N)c3ccc(OC)cc3)cc2)nc(-c2ccccc2)c1-c1ccccc1" ?
Resp: 1.0

Req: Please give the result for "O=c1ccn(Cc2cn(-c3c4ccccc4nc4ccccc34)nn2)c(=O)[nH]1" too.
Resp: 1.0

---

# System: SW-620 colon
# EXPERIMENTAL DETAILS: NCI-60 one-dose screen, 48 h
# COND: 10 µM unless noted
About 83,000 compounds went through this panel and 20% of them were active in at least one assay; those are over-represented in the sample as a whole. Calls of active or inactive are those of the source. How the source made its calls: active means growth percent below 10; inactive means the rest.
One label from this list, please: 1 = active, -1 = inactive

Req: Field: outcome | Entry: "CCCCCCN(CCCCCC)c1ccc(/C=C2/SC(=O)NC2=O)c(C)c1"
Resp: -1

Req: Also "CCCCCCNC(=O)Oc1ccc(/C(=C(\C)c2ccc(Cl)cc2)c2ccc(OCCN(CC)CC)cc2)cc1" , if possible.
Resp: -1

Req: And the next one, "O=C(Cc1ccc(F)c(Cl)c1)Nc1cc(C2(C(F)(F)F)CC2)nn1Cc1ccccc1" ?
Resp: -1

Req: Then "c1ccc2c(c1)Nc1ccncc1S2" ?
Resp: -1

Req: How about CC1=C([Se]CC(OC(=O)[C@@H](CSSC(C)(C)C)NC(=O)OC(C)(C)C)C(=O)NC(C)(C)C)C(=O)c2ccccc2C1=O (some centres undefined) ?
Resp: 1

Req: Lookup "COc1ccc(C(=S)N2CCN(c3cccc(C)c3)CC2)cc1OC"
Resp: -1

Req: # repeat for "O=C(N/N=C/c1c(Cl)cccc1Cl)c1ccc(C(F)(F)F)nc1Nc1cccc(C(F)(F)F)c1"
Resp: 1

Req: Subsequent entry: "COc1cccc(Oc2ccccc2NC(=O)CNC(=O)c2cccc3ccccc23)c1"
Resp: -1

Req: Then "O=S(=O)(Nc1ccc(-c2nc(-c3cccc(OCCN4CCOCC4)c3)c(-c3ccnc(Br)c3)[nH]2)cc1)c1ccccc1" ?
Resp: -1

---

# Test system: HT29 colon
# EXPERIMENTAL DETAILS: NCI-60 one-dose screen, 48 h (100 = growth as untreated, 0 = no growth, -100 = all killed)
# COND: 10 µM unless noted
The panel holds about 83,000 compounds, 20% with a hit somewhere; the sample as a whole holds those more often.
RESULT TYPE: growth (%)
Your answer is read as %, so omit the unit and give the number.

Req: So what does the record say about growth for "Nc1ccccc1-c1cc2c(c3c1[nH]c1ccccc13)CCCCC2" ?
Resp: 88

Req: What do we get for "Cc1onc2c(-c3ccccc3)n[nH]c(=O)c12" ?
Resp: 90.4

Req: Can you check CCc1cccc2c3c(sc12)C(c1ccc(Cl)cc1)C(C#N)=C(N)O3 (stereo not given) next?
Resp: 6.86

Req: Also "C[N+]1=C(/C=C/c2ccc(O)c3ncccc23)C(C)(C)c2ccccc21" ?
Resp: 96.9

Req: Now try "O=c1c2cc(F)ccc2sc2c(N3CCCCC3)nc3ccccc3c12" .
Resp: 98

Req: And the next one, "CC(C)OC(=O)Nc1ccc(-c2nc(-c3cccc(OCCN4CCOCC4)c3)c(-c3ccnc(Br)c3)[nH]2)cc1" ?
Resp: 1.53

Req: Could you do the same for "C#C[C@]1(O)CC[C@H]2[C@@H]3CC=C4c5sc(Nc6ccccc6)nc5CC[C@]4(C)[C@H]3CC[C@@]21C" , please?
Resp: 6.31

Req: Try this molecule too: "Cc1cc(-c2cc(C)c(N)cc2C)c(C)cc1N"
Resp: 99

Req: Item: COc1ccc(-c2cc3c4c(nc5ccccc5c4c2)CC(c2cc(OC)c(OC)c(OC)c2)O3)cc1 (stereo not given)
Resp: 45.2

Req: Similarly, OC(COc1ccccc1)CN1CCN(c2ccc(Cl)cc2)CC1 (stereo not given) ?
Resp: 101

---

Hi there, I'd appreciate the recorded growth for every entry that follows.
# Test system: HCT-15 colon
# EXPERIMENTAL DETAILS: NCI-60 one-dose screen, 48 h (100 = growth as untreated, 0 = no growth, -100 = all killed)
# COND: 10 µM unless noted
Compounds without any hit were thinned out: in the full panel of roughly 83,000, 20% have a hit.
Provide only the numeric value, understood in %.

Req: I have this molecule here, CC1=C([Se]CC(OC(=O)[C@@H](CSSC(C)(C)C)NC(=O)OC(C)(C)C)C(=O)NC(C)(C)C)C(=O)c2ccccc2C1=O (some centres undefined) , and I need its recorded growth.
Resp: -28.6

Req: Next molecule: "COc1ccc2c(c1)c(-c1ccc(-c3cn(C)c4ccc(OC)cc34)o1)cn2C"
Resp: 56.2

Req: Also "c1ccc2c(-c3nc(-c4c[nH]c5ccncc45)cs3)c[nH]c2c1" , if possible.
Resp: 6

Req: Record: "Cc1nc(S(=O)(=O)c2ccccc2)c(S(=O)(=O)Cc2ccc([N+](=O)[O-])cc2)o1"
Resp: 82.5

Req: Try this molecule too: "CN(C)CCCNc1nc2ccccc2c2c(=O)c3cc(F)ccc3sc12"
Resp: 17.7

Req: Proceed to "O=c1n(Cc2ccc3ccccc3c2)ccn1Cc1ccc2ccccc2c1"
Resp: 91.4

Req: How about "NCCCNc1nc2ccc(Cl)cc2c2c(=O)c3cc(F)ccc3sc12" ?
Resp: 47.9

Req: Further, for CCN1C(=O)N(CC)C2Nn3c(s/c(=C4\C(=O)Nc5ccccc54)c3=O)=NC21 (centres undefined) ?
Resp: 35.9

Req: Try this molecule too: "c1ccc2cc(C[n+]3ccn(CCCCCCn4cc[n+](Cc5ccc6ccccc6c5)c4)c3)ccc2c1"
Resp: 96.4
